Tested on: COLO 205 colon
measurement-protocol: NCI-60 one-dose screen, 48 h
test-settings: 10 µM
About 83,000 compounds went through this panel and 20% of them were active in at least one assay; those are over-represented in the sample as a whole. The source made the active and inactive calls. The calls were made as follows: active = growth percent below 10; inactive = the rest.
Pick from active, inactive when you respond.

Each compound tested received a call. Report the one for `Fc1ccc(C(c2ccc(F)cc2)C(Cl)Cl)cc1` .
inactive

----------
Test system: 786-0 renal
measurement-protocol: NCI-60 one-dose screen, 48 h (100 = growth as untreated, 0 = no growth, -100 = all killed)
test-settings: 10 µM
This is part of a sample that, as a whole, favours compounds with a hit. Of some 83,000 tested, about 20% had one in any assay. Calls of active or inactive are those of the source. Rule for the calls: active = growth percent below 10; inactive = the rest.
Each entry below carries its recorded growth.

Example entries and their recorded answers appear below.
CNS(=O)(=O)Oc1ccc(-c2ccc3occc3c2)cc1 99.1% (inactive)
COc1cc2c(Nc3ccc(S(N)(=O)=O)cc3)ncnc2c(OC)c1OC 121% (inactive)
C=CCn1c(SCC(=O)Nc2ccc(C(=O)/C=C/c3ccc(Cl)cc3)cc2)nnc1-c1cc(-c2ccccc2)nc2ccccc12 86.7% (inactive)
Oc1cccc(-c2nc3sccn3c2-c2ccncn2)c1 95.7% (inactive)

For the compound `CS(=O)(=O)c1nccc(-c2c(-c3cccc(OCCN4CCOCC4)c3)nc3sccn23)n1` , what growth is on record?
90.6% (inactive)
